Experiment: Steady-state pharmacokinetics of LNG and EE from day 21 of a COC cycle
Format: in vivo, HIV-positive women
Conditions: female, human, serum, po, T1/2, Control arm (n=10); half-life by NCA; median
readout.name: half-life (min)
Give the value, in units of min, as a plain number.

Input line: Requested field: half-life. Item: C#C[C@]1(O)CC[C@H]2[C@@H]3CCc4cc(O)ccc4[C@H]3CC[C@@]21C [EE, ethinyl estradiol]
Output line: 1700

----------
Assay: Steady-state pharmacokinetics of LNG and EE from day 21 of a COC cycle
Format: in vivo, HIV-positive women
Conditions: female, human, serum, oral, LNG Cmin, Ritonavir arm (n=5); concentration 24 h after the last dose; mean±SD
readout.name: concentration at 24 h

Input line: Requested field: concentration at 24 h. Item: C#C[C@]1(O)CC[C@H]2[C@@H]3CCC4=CC(=O)CC[C@@H]4[C@H]3CC[C@@]21CC [LNG, levonorgestrel]
Output line: 4.97 ng/mL

----------
Experiment: Steady-state pharmacokinetics of LNG and EE from day 21 of a COC cycle
Format: in vivo, HIV-positive women
Settings: female, human, serum, po, LNG Cmax, Control arm (n=10); last dose of the cycle; mean±SD
readout.name: Cmax (ng/mL)
Give the value, in units of ng/mL, as a plain number.

Input line: Requested field: Cmax. Item: C#C[C@]1(O)CC[C@H]2[C@@H]3CCC4=CC(=O)CC[C@@H]4[C@H]3CC[C@@]21CC [LNG, levonorgestrel]
Output line: 7.62

----------
Experiment: Steady-state pharmacokinetics of LNG and EE from day 21 of a COC cycle
Type: in vivo, HIV-positive women
Details: female, human, serum, po, EE Cmax, Control arm (n=10); last dose of the cycle; mean±SD
readout.name: Cmax (ng/mL)
Give the value, in units of ng/mL, as a plain number.

Input line: Requested field: Cmax. Item: C#C[C@]1(O)CC[C@H]2[C@@H]3CCc4cc(O)ccc4[C@H]3CC[C@@]21C
Output line: 0.163

----------
Assay: Steady-state pharmacokinetics of LNG and EE from day 21 of a COC cycle
Assay type: in vivo, HIV-positive women
Conditions: female, human, in vivo, po
readout.name: half-life
Answer with the figure and its unit, nothing else.

Input line: Requested field: half-life. Item: C#C[C@]1(O)CC[C@H]2[C@@H]3CCC4=CC(=O)CC[C@@H]4[C@H]3CC[C@@]21CC
Output line: 42.6 h

----------
Test: Steady-state pharmacokinetics of LNG and EE from day 21 of a COC cycle
Type: in vivo, HIV-positive women
Conditions: female, human, serum, oral, EE Cmin, Control arm (n=10); concentration 24 h after the last dose; mean±SD
readout.name: concentration at 24 h (ng/mL)
Give the value, in units of ng/mL, as a plain number.

Input line: Requested field: concentration at 24 h. Item: C#C[C@]1(O)CC[C@H]2[C@@H]3CCc4cc(O)ccc4[C@H]3CC[C@@]21C [EE, ethinyl estradiol]
Output line: 0.0492

----------
Assay: Steady-state pharmacokinetics of LNG and EE from day 21 of a COC cycle
Type: in vivo, HIV-positive women
Conditions: female, human, serum, po
readout.name: Tmax (h)
Give the value, in units of h, as a plain number.

Input line: Requested field: Tmax. Item: C#C[C@]1(O)CC[C@H]2[C@@H]3CCc4cc(O)ccc4[C@H]3CC[C@@]21C
Output line: 1

----------
Test: Steady-state pharmacokinetics of LNG and EE from day 21 of a COC cycle
Format: in vivo, HIV-positive women
Details: female, human, serum, oral, LNG Cmin, Control arm (n=10); concentration 24 h after the last dose; mean±SD
readout.name: concentration at 24 h (ng/mL)
Give the value, in units of ng/mL, as a plain number.

Input line: Requested field: concentration at 24 h. Item: C#C[C@]1(O)CC[C@H]2[C@@H]3CCC4=CC(=O)CC[C@@H]4[C@H]3CC[C@@]21CC
Output line: 3.7

----------
Assay: Steady-state pharmacokinetics of LNG and EE from day 21 of a COC cycle
Assay type: in vivo, HIV-positive women
Conditions: female, human, serum, po, LNG AUCτ, Ritonavir arm (n=5); AUC 24 h of the last dose of the 21-day cycle; mean±SD
readout.name: AUC (ng·h/mL)
Give the value, in units of ng·h/mL, as a plain number.

Input line: Requested field: AUC. Item: C#C[C@]1(O)CC[C@H]2[C@@H]3CCC4=CC(=O)CC[C@@H]4[C@H]3CC[C@@]21CC [LNG, levonorgestrel]
Output line: 150
